Molecular target: T1, human LTβR extracellular domain fused with an Fc fragment at the C-terminus (human, UniProt P36941 31-227)
T1 construct: extracellular domain; Bought; also called hLTβR; not shown: Fc fragment at the C-terminus
T1 sequence (P36941 31-227): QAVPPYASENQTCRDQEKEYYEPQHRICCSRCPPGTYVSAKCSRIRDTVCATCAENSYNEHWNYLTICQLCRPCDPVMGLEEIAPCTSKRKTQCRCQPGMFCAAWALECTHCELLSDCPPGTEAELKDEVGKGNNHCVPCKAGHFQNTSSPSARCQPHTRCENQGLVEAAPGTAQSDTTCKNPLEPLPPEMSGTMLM
Test: ELISA on coated target-Fc

{"BINDER": "LIGHT-48 (ligand, Printed mutations: L120P, L220R; Soluble protein carries an N-terminal His tag) DGPAGSWEQLIQERRSHEVNPAAHLTGANSSLTGSGGPLLWETQLGPAFLRGLSYHDGALVVTKAGYYYIYSKVQLGGVGCPLGLASTITHGLYKRTPRYPEELELLVSQQSPCGRATSSSRVWWDSSFLGGVVHLEAGEKVVVRVRDERLVRLRDGTRSYFGAFMV", "EC50 (mg/L)": 0.756}
{"BINDER": "LIGHT-29 (ligand, Printed mutations: S160N, L220S; Soluble protein carries an N-terminal His tag) DGPAGSWEQLIQERRSHEVNPAAHLTGANSSLTGSGGPLLWETQLGLAFLRGLSYHDGALVVTKAGYYYIYSKVQLGGVGCPLGLANTITHGLYKRTPRYPEELELLVSQQSPCGRATSSSRVWWDSSFLGGVVHLEAGEKVVVRVSDERLVRLRDGTRSYFGAFMV", "EC50 (mg/L)": 0.0452}
{"BINDER": "LIGHT-27 (ligand, Printed mutations: S160N, T161S, L220S, E222D; Soluble protein carries an N-terminal His tag) DGPAGSWEQLIQERRSHEVNPAAHLTGANSSLTGSGGPLLWETQLGLAFLRGLSYHDGALVVTKAGYYYIYSKVQLGGVGCPLGLANSITHGLYKRTPRYPEELELLVSQQSPCGRATSSSRVWWDSSFLGGVVHLEAGEKVVVRVSDDRLVRLRDGTRSYFGAFMV", "EC50 (mg/L)": 0.0827}
{"BINDER": "LIGHT-32 (ligand, Printed mutations: S160R, L220S; Soluble protein carries an N-terminal His tag) DGPAGSWEQLIQERRSHEVNPAAHLTGANSSLTGSGGPLLWETQLGLAFLRGLSYHDGALVVTKAGYYYIYSKVQLGGVGCPLGLARTITHGLYKRTPRYPEELELLVSQQSPCGRATSSSRVWWDSSFLGGVVHLEAGEKVVVRVSDERLVRLRDGTRSYFGAFMV", "EC50 (mg/L)": 0.247}
{"BINDER": "LIGHT-23 (ligand, Printed mutations: S160G, L220S; Soluble protein carries an N-terminal His tag) DGPAGSWEQLIQERRSHEVNPAAHLTGANSSLTGSGGPLLWETQLGLAFLRGLSYHDGALVVTKAGYYYIYSKVQLGGVGCPLGLAGTITHGLYKRTPRYPEELELLVSQQSPCGRATSSSRVWWDSSFLGGVVHLEAGEKVVVRVSDERLVRLRDGTRSYFGAFMV", "EC50 (mg/L)": 0.0892}
{"BINDER": "LIGHT-45 (ligand, Printed mutations: G150S, S160P, T161S, L220S, R223H; Soluble protein carries an N-terminal His tag) DGPAGSWEQLIQERRSHEVNPAAHLTGANSSLTGSGGPLLWETQLGLAFLRGLSYHDGALVVTKAGYYYIYSKVQLSGVGCPLGLAPSITHGLYKRTPRYPEELELLVSQQSPCGRATSSSRVWWDSSFLGGVVHLEAGEKVVVRVSDEHLVRLRDGTRSYFGAFMV", "EC50 (mg/L)": 0.0362}
